// provenance: ChEMBL document CHEMBL5506055

Biological target: NACHT, LRR and PYD domains-containing protein 3 (Mus musculus) (UniProt Q8R4B8)
Sequence (Q8R4B8 whole entry, the tested form may be a part): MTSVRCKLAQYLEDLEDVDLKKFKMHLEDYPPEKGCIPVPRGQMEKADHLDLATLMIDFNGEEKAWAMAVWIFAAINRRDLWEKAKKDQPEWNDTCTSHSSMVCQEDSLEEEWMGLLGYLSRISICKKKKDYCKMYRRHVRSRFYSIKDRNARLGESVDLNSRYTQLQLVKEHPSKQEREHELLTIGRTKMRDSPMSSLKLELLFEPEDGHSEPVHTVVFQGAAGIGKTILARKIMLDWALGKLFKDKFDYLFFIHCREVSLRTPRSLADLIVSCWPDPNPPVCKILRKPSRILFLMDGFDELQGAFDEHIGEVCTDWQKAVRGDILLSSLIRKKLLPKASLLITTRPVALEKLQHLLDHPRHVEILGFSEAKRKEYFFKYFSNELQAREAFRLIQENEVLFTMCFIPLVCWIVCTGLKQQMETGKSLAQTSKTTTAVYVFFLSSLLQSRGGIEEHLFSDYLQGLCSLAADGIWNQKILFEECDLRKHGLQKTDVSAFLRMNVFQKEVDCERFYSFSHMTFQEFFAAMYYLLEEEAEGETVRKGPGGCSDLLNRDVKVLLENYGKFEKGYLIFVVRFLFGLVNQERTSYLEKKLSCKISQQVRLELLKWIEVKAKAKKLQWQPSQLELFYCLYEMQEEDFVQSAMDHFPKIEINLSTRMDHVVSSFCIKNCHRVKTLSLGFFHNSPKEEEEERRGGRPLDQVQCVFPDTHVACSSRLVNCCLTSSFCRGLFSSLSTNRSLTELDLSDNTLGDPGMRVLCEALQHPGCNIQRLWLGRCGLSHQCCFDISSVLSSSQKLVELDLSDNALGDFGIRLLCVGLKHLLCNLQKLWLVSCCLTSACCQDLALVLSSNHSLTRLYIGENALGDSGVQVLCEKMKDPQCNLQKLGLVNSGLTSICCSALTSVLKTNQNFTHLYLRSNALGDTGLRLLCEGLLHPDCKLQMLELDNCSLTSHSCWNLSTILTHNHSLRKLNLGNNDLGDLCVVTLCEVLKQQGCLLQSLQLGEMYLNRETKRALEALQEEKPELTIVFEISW
Assay: Inhibition of NLRP3 inflammasome activation in LPS/ATP-induced C57BL/6 mouse BMDMs assessed as reduction in IL-1beta secretion at 500 nM preincubated with LPS for 4 hrs followed by compound addition for 30 mins and further stimulated with ATP for 30 mins by ELISA relative to control
Type: cell-based
Conditions: BMDM, time 1.0 hrs
Property Label: inhibition (%)
# output: bare number, implied unit %

>  <Molecule>
C=C1C(=O)[C@]23[C@H](O)[C@H]1CC[C@H]2[C@]12C=CCC(C)(C)[C@H]1[C@H](O)[C@@]3(OCCC(=O)N(C)C)OC2

>  <inhibition, %>
89

$$$$
>  <Molecule>
C=C1C(=O)[C@]23[C@H](O)[C@H]1CC[C@H]2[C@]12C=CCC(C)(C)[C@H]1[C@H](O)[C@@]3(OCCC(=O)NC1CCOCC1)OC2

>  <inhibition, %>
66.2

$$$$
>  <Molecule>
C=C1C(=O)[C@]23[C@H](O)[C@H]1CC[C@H]2[C@]12C=CCC(C)(C)[C@H]1[C@H](O)[C@@]3(OCc1ccc(C#N)cc1)OC2

>  <inhibition, %>
89.2

$$$$
>  <Molecule>
C=C1C(=O)[C@]23[C@H](O)[C@H]1CC[C@H]2[C@]12C=CCC(C)(C)[C@H]1[C@H](O)[C@@]3(OCC)OC2

>  <inhibition, %>
66.1

$$$$
>  <Molecule>
C=C1C(=O)[C@]23[C@H](OCc4ccccc4)[C@H]1CC[C@H]2[C@]12C=CCC(C)(C)[C@H]1[C@H](O)[C@@]3(O)OC2

>  <inhibition, %>
85.5

$$$$

Qu. Item C=C1C(=O)[C@]23[C@H](O)[C@H]1CC[C@H]2[C@]12C=CCC(C)(C)[C@H]1[C@H](O)[C@@]3(OCCCC(=O)O)OC2 has what recorded inhibition?
Ans. 83

Qu. What would you report for C=C1C(=O)[C@]23[C@H](O)[C@H]1CC[C@H]2[C@]12C=CCC(C)(C)[C@H]1[C@H](O)[C@@]3(OCCC(=O)NCC(C)C)OC2 ?
Ans. 79.1

Qu. What would you report for C=C1C(=O)[C@]23[C@H](OCc4ccc(C#N)cc4)[C@H]1CC[C@H]2[C@]12C=CCC(C)(C)[C@H]1[C@H](O)[C@@]3(O)OC2 ?
Ans. 86.6

====

Test: AUC in ICR mouse at 10 mg/kg, po measured upto 24 hrs by LC-MS/MS method
Format: ADME, organism-based
Conditions: ICR, in vivo
Property Label: AUC at 24 h (ng·h/mL)
# output: bare number, implied unit ng·h/mL

Qu. Item C=C1C(=O)[C@]23[C@H](O)[C@H]1CC[C@H]2[C@]12C=CCC(C)(C)[C@H]1[C@H](O)[C@@]3(OCc1cncs1)OC2 has what recorded AUC at 24 h?
Ans. 10.8

====

Molecular target: NACHT, LRR and PYD domains-containing protein 3 (Mus musculus) (UniProt Q8R4B8)
Experiment: Inhibition of NLRP3 inflammasome activation in LPS/ATP-induced C57BL/6 mouse BMDMs assessed as reduction in IL-1beta secretion at 500 nM preincubated with LPS for 4 hrs followed by compound addition for 30 mins and further stimulated with ATP for 30 mins by ELISA relative to control
Format: cell-based
Settings: BMDM, time 1.0 hrs
Property Label: inhibition
Dear colleague, please send the value followed by its unit.

Solved entries:
>  <Molecule>
C=C1C(=O)[C@]23[C@H](O)[C@H]1CC[C@H]2[C@]12C=CCC(C)(C)[C@H]1[C@H](O)[C@@]3(OCc1ccncc1)OC2

>  <Measurement>
77.3%

$$$$
>  <Molecule>
C=C1C(=O)[C@]23[C@H](O)[C@H]1CC[C@H]2[C@]12C=CCC(C)(C)[C@H]1[C@H](O)[C@@]3(OCc1nc(-c3ccccc3)cs1)OC2

>  <Measurement>
93.9%

$$$$

Kindly consider the entry below.
Qu. Form: Entry = C=C1C(=O)[C@]23[C@H](O)[C@H]1CC[C@H]2[C@@]12CO[C@]3(O)[C@@H](O)[C@@H]1C(C)(C)CC[C@@H]2O | System = NACHT, LRR and PYD domains-containing protein 3 (Mus musculus) (UniProt Q8R4B8) | inhibition = ____
Ans. 41.2%
